- experimental target: IDH2 R140Q (Homo sapiens, UniProt P48735, R140Q)
- Sequence (P48735 40-452 R140Q): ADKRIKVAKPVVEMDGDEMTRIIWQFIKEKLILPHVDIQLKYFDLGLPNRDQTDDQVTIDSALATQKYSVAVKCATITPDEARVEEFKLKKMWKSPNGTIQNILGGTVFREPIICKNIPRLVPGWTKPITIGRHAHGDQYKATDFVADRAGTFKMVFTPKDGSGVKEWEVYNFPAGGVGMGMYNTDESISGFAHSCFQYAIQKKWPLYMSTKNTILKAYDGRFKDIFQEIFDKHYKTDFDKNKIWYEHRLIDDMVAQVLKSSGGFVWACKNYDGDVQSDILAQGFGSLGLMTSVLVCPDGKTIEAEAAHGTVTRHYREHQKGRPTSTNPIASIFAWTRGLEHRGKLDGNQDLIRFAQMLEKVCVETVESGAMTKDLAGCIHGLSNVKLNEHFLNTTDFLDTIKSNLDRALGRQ
- test summary: IDH2 R140Q enzymatic assay (cofactor depletion, similar format)
- Type: biochemical
- test settings: read-out: Enz R140Q
readout: IC50

Observe how each entry below is paired with its result.
>  <compound>
CC(C)(C)Nc1nc(Nc2cc(F)cc(S(C)(=O)=O)c2)nc(-c2cccc(O)c2)n1

>  <IC50>
100 to 1000 nM

$$$$
>  <compound>
CC(C)Nc1nc(Nc2ccnc(C(F)(F)F)c2)nc(-c2ccccc2)n1

>  <IC50>
< 100 nM

$$$$
>  <compound>
CC(C)(C)CNc1nc(Nc2cncnc2)nc(-c2cccc(C(F)(F)F)n2)n1

>  <IC50>
100 to 1000 nM

$$$$
>  <compound>
CC(C)Nc1nc(Nc2cccc(C(C)(C)O)c2)nc(-c2cccc(C(F)(F)F)n2)n1

>  <IC50>
100 to 1000 nM

$$$$
>  <compound>
CC(Nc1nc(Nc2ccncc2)nc(-c2ccccc2)n1)C(C)(C)C (centres unmarked)

>  <IC50>
< 100 nM

$$$$

Task: Request body: readout IC50, system IDH2 R140Q (Homo sapiens, UniProt P48735, R140Q), query `CC(C)Nc1nc(Nc2ccnc(C(F)(F)F)c2)nc(-c2cccc(S(C)(=O)=O)c2)n1` . Return the value.
Output: 100 to 1000 nM

Task: Which IC50 is reported with IDH2 R140Q (Homo sapiens, UniProt P48735, R140Q) for this entry: CC(C)Nc1nc(Nc2ccnc(F)c2)nc(-c2nccc(C(F)(F)F)n2)n1 [Compound 538] ?
Output: 1000 to 10000 nM

Task: Look up IC50 with IDH2 R140Q (Homo sapiens, UniProt P48735, R140Q) for this compound: `CC(C)Nc1nc(Nc2cc(F)cc(F)c2)nc(-c2nccc(C(F)(F)F)n2)n1`
Output: 100 to 1000 nM

Task: Lab note: need IC50 with IDH2 R140Q (Homo sapiens, UniProt P48735, R140Q) for entry `CC(C)(O)CNc1nc(Nc2ccnc(F)c2)nc(-c2cccc(Cl)n2)n1` , please look it up.
Output: 1000 to 10000 nM

Data provenance: patent US9512107B2
